- protocol: Plasma protein binding in rat at 1 mg/kg, iv and 2 mg/kg, po
- Type: ADME, organism-based
- experimental-setup: read-out: PPB (converted)
In this section we review reported fraction unbound values for a set of molecules.
Number only, please.

sample_smiles=COC(=O)N1CCc2nc(C)n([C@H]3C[C@H]4CC[C@@H](C3)N4CC[C@H](NC(C)=O)c3cccc(F)c3)c2C1 property_label="fraction unbound" recorded_value=0.29

Moving on to another molecule below.
For record `CC(=O)N[C@@H](CCN1[C@@H]2CC[C@H]1C[C@@H](n1c(C)nc3c1CCN(C(=O)C(C)C)C3)C2)c1cccc(F)c1` the listed fraction unbound is 0.38

###

- protocol: Intrinsic clearance in human liver microsomes assessed per mg of protein
- Assay type: ADME, Microsome
property-label: microsomal CLint (µL/min/mg)
Give the value, in units of µL/min/mg, as a plain number.

# example entries with known answers
sample_smiles=CC(=O)N[C@@H](CCN1[C@@H]2CC[C@H]1C[C@@H](n1c(C)nc3c1CN(C(=O)OC(C)C)CC3)C2)c1ccccc1 property_label="microsomal CLint" unit_abbreviation=µL/min/mg recorded_value=44
sample_smiles=CC(=O)N[C@@H](CCN1[C@@H]2CC[C@H]1C[C@@H](n1c(C)nc3c1CCN(C(=O)C(C)(C)C)C3)C2)c1cccc(F)c1 property_label="microsomal CLint" unit_abbreviation=µL/min/mg recorded_value=35
sample_smiles=CC(=O)N[C@@H](CCN1[C@@H]2CC[C@H]1C[C@@H](n1c(C)nc3c1CCN(C(=O)C(C)C)C3)C2)c1cccc(F)c1 property_label="microsomal CLint" unit_abbreviation=µL/min/mg recorded_value=13
sample_smiles=CCCC(=O)N1CCc2c(nc(C)n2[C@H]2C[C@H]3CC[C@@H](C2)N3CC[C@H](NC(C)=O)c2cccc(F)c2)C1 property_label="microsomal CLint" unit_abbreviation=µL/min/mg recorded_value=25
sample_smiles=CC(=O)N[C@@H](CCN1[C@@H]2CC[C@H]1C[C@@H](n1c(C)nc3c1CCN(c1ccncn1)C3)C2)c1cccc(F)c1 property_label="microsomal CLint" unit_abbreviation=µL/min/mg recorded_value=35
sample_smiles=COC(=O)N[C@@H](CCN1[C@@H]2CC[C@H]1C[C@@H](n1c(C)nc3c1CN(C(C)=O)CC3)C2)c1ccccc1 property_label="microsomal CLint" unit_abbreviation=µL/min/mg recorded_value=42
sample_smiles=COC(=O)N1CCc2nc(C)n([C@H]3C[C@H]4CC[C@@H](C3)N4CC[C@H](NC(C)=O)c3cccc(F)c3)c2C1 property_label="microsomal CLint" unit_abbreviation=µL/min/mg recorded_value=19
sample_smiles=Cc1nnc(C(C)C)n1[C@@H]1C[C@H]2CC[C@@H](C1)N2CC[C@H](NC(=O)C1CCC(F)(F)CC1)c1ccccc1 property_label="microsomal CLint" unit_abbreviation=µL/min/mg recorded_value=49
sample_smiles=CC(=O)N[C@@H](CCN1[C@@H]2CC[C@H]1C[C@@H](n1c(C)nc3c1CN(C(C)C)CC3)C2)c1ccccc1 property_label="microsomal CLint" unit_abbreviation=µL/min/mg recorded_value=46
sample_smiles=COC(=O)N1CCc2nc(C)n([C@H]3C[C@H]4CC[C@@H](C3)N4CC[C@H](NC(C)=O)c3ccccc3)c2C1 property_label="microsomal CLint" unit_abbreviation=µL/min/mg recorded_value=18

Moving on to another compound below.
For record `CC(=O)N[C@@H](CCN1[C@@H]2CC[C@H]1C[C@@H](n1c(C)nc3c1CCN(c1cnccn1)C3)C2)c1cccc(F)c1` the listed microsomal CLint is 183
